Tested on: BT-549
Assay: NCI tumour cell line growth inhibition, 48 h
Active and inactive are the calls of the source. Cut-off read from the data, not from the text of the source: active = GI50 up to about 1.1 µM and inactive = higher.
Answer with one of the outcomes TRUE for active, FALSE for inactive

Example entries and their recorded answers appear below.
COMPOUND	CLASS
COc1cc2c(cc1OC)C(=O)/C(=C/c1ccccc1)CC2	FALSE
COC(=O)Nc1nc2cc(Oc3ccc4nc(NC(=O)OC)[nH]c4c3)ccc2[nH]1	FALSE

Record lookup: outcome of this test for Clc1ccc(CSCCc2ccncc2)cc1Cl ?
FALSE

Record lookup: outcome of this test for c1ccc(Nc2nn3c(CCCCCCCCc4nnc5sc(Nc6ccccc6)nn45)nnc3s2)cc1 ?
FALSE

Record lookup: outcome of this test for CNc1ccc(C(=O)CC(O)CCC(C)C2OC(=O)CC(O)CC(=O)CC(O)CC(O)CC(O)CC(O)CC3(O)CC(O)C(C(=O)NCCN(C)C)C(CC(OC4OC(C)C(O)C(NC(=O)CN5CCN(C)CC5)C4O)\C=C/C=C\C=C/C=C/C=C/C=C\C=C/C2C)O3)cc1 (stereo not given) ?
FALSE

Record lookup: outcome of this test for CC(CC(C)(C)[N+](C)(C)C)[N+](C)(C)C (stereo not given) ?
FALSE

Record lookup: outcome of this test for CCCCOCOc1ccccc1P1(=O)COc2ccccc2OC1 ?
FALSE

Record lookup: outcome of this test for c1ccc2/c3[nH]/c(c2c1)=N\c1ccc(cc1)-c1nc2ccc(cc2o1)/N=c1/[nH]/c(c2ccccc12)=N/c1ccc2nc(oc2c1)-c1ccc(cc1)\N=3 ?
FALSE
